Target: K-Ras G12D (Homo sapiens, UniProt P01116, G12D)
Sequence (P01116 1-188 isoform P01116-2 G12D): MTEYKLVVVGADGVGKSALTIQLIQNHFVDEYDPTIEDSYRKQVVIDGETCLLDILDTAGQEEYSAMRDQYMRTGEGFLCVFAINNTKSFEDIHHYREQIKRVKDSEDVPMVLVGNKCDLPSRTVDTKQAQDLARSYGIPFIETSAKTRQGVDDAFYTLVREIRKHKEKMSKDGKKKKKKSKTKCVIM
Assay: HTRF resonance energy transfer assay, K-Ras G12D / SOS1 interaction
Settings: HTRF assay of Example 5; read-out: IC50 against K-Ras G12D
pIC50: −log10 of the molar value.
Measure: pIC50

N#Cc1c(N)sc2c(F)ccc(-c3c(Cl)c4c5c(nc(OC[C@@]67CCCN6C[C@H](F)C7)nc5c3F)N(C3CC5(CCN(C=O)C5)C3)CCO4)c12 (stereo partly drawn) [Compound 698] | > 7.00

Recorded pIC50 (molecule N#Cc1c(N)sc2c(F)ccc(-c3c(Cl)c4c5c(nc(OC[C@@]67CCCN6C[C@H](F)C7)nc5c3F)N(C3CC(NC(=O)C(F)F)C3)CCO4)c12 (stereo partly drawn) [Compound 612] ): > 7.00

# pIC50 of C[C@H](O)[C@H]1COc2c(Cl)c(-c3ccc(F)c4sc(N)c(C#N)c34)c(F)c3nc(OC[C@@]45CCCN4C[C@H](F)C5)nc(c23)N1CCC(F)F [Compound 954] = > 7.00

Item: N#CCCN1CCOc2c(Cl)c(-c3ccc(F)c4sc(N)c(C#N)c34)c(F)c3nc(OC[C@@]45CCCN4C[C@H](F)C5)nc1c23 [Compound 648] | pIC50: > 7.00

Summary for this molecule, CC(C)[C@H]1COc2c(Cl)c(-c3ccc(F)c4sc(N)c(C#N)c34)c(F)c3nc(OC[C@@]45CCCN4C[C@H](F)C5)nc(c23)N1CC(F)F [Compound 884] : pIC50 is > 7.00

Lab note: CC1(O)CCCC(N2CCOc3c(Cl)c(-c4ccc(F)c5sc(N)c(C#N)c45)c(F)c4nc(OC[C@@]56CCCN5C[C@H](F)C6)nc2c34)C1 (stereo partly drawn) [Compound 1069] gave pIC50 of > 7.00

The molecule listed as N#Cc1c(N)sc2c(F)ccc(-c3c(Cl)c4c5c(nc(OC[C@@]67CCCN6C[C@H](F)C7)nc5c3F)N([C@H]3CCN(C=O)C3)CCO4)c12 [Compound 1095] shows pIC50 equal to > 7.00

###

System: SW620 cells
Experiment: Ras cellular assay, growth of cells with K-Ras G12V mutation (CellTiter-Glo)
Format: cell-based
Conditions: Homo sapiens, SW-620; cell growth, Example 9, G12V mutation; read-out: IC50 against SW620 cells
Measure: IC50

Worked cases, answers included:
CO[C@H](C)C(=O)N1CCC(N2CCOc3c(Cl)c(-c4ccc(F)c5sc(N)c(C#N)c45)c(F)c4nc(OC[C@@]56CCCN5C[C@H](F)C6)nc2c34)C1 (some centres unmarked) | < 5 µM
C=C[C@H]1COc2c(Cl)c(-c3ccc(F)c4sc(N)c(C#N)c34)c(F)c3nc(OC[C@@]45CCCN4C[C@H](F)C5)nc(c23)N1C1CCOC1 (some centres unmarked) [Compound 726] | < 5 µM
N#Cc1c(N)sc2c(F)ccc(-c3c(Cl)c4c5c(nc(OC[C@@]67CCCN6C[C@H](F)C7)nc5c3F)N(CC3CC3(F)F)CCO4)c12 (some centres unmarked) | < 5 µM
CC(F)(F)CN1CCOc2c(Cl)c(-c3ccc(F)c4sc(N)c(C#N)c34)c(F)c3nc(OC[C@@]45CCCN4C[C@H](F)C5)nc1c23 | < 5 µM
C[C@H]1CN(C2CCN(C(=O)C(F)F)C2)c2nc(OC[C@@]34CCCN3C[C@H](F)C4)nc3c(F)c(-c4ccc(F)c5sc(N)c(C#N)c45)c(Cl)c(c23)O1 (some centres unmarked) | < 5 µM

The compound listed as N#Cc1c(N)sc2c(F)ccc(-c3c(Cl)c4c5c(nc(OC[C@@]67CCCN6C[C@H](F)C7)nc5c3F)N(C3CC5CCC3N5C=O)CCO4)c12 (some centres unmarked) shows IC50 equal to < 5 µM

Summary for this compound, C=C[C@H]1COc2c(Cl)c(-c3ccc(F)c4sc(N)c(C#N)c34)c(F)c3nc(OC[C@@]45CCCN4C[C@H](F)C5)nc(c23)N1C1CCOC1 (single isomer, unassigned) [Compound 980] : IC50 is < 5 µM

The recorded IC50 for CN(CCCN1c2nc(OC[C@@]34CCCN3C[C@H](F)C4)nc3c(F)c(-c4ccc(F)c5sc(N)c(C#N)c45)c(Cl)c(c23)OCC1CC#N)C(=O)[C@H]1CN1 (some centres unmarked) is < 5 µM

###

Test system: SW620 cells
Assay: Ras cellular assay, growth of cells with K-Ras G12V mutation (CellTiter-Glo)
Assay type: cell-based
Settings: Homo sapiens, SW-620; cell growth, Example 9, G12V mutation; read-out: IC50 against SW620 cells
pIC50: −log10 of the molar value.
Measure: pIC50

Below are worked cases with known answers.
N#Cc1c(N)sc2c(F)ccc(-c3c(Cl)c4c5c(nc(OC[C@@]67CCCN6C[C@H](F)C7)nc5c3F)N(C3CC35CN(C=O)C5)CCO4)c12 (some centres unmarked) [Compound 957] | > 5.30
CN(C)CCCN1CCOc2c(Cl)c(-c3ccc(F)c4sc(N)c(C#N)c34)c(F)c3nc(OC[C@@]45CCCN4C[C@H](F)C5)nc1c23 [Compound 1020] | > 5.30
COC1CN(C(=O)N2CCC(N3C[C@H](C)Oc4c(Cl)c(-c5ccc(F)c6sc(N)c(C#N)c56)c(F)c5nc(OC[C@@]67CCCN6C[C@H](F)C7)nc3c45)CC2)C1 [Compound 935] | > 5.30
N#Cc1c(N)sc2c(F)ccc(-c3c(Cl)c4c5c(nc(OC[C@@]67CCCN6C[C@H](F)C7)nc5c3F)N(C3CCOC3)[C@@H](C3(F)CC3)CO4)c12 (single isomer, unassigned) [Compound 772] | > 5.30
N#Cc1c(N)sc2c(F)ccc(-c3c(Cl)c4c5c(nc(OC[C@@]67CCCN6C[C@H](F)C7)nc5c3F)N(CC(F)F)CC(C3CC3)O4)c12 (some centres unmarked) [Compound 1128] | > 5.30

Value of measured pIC50 for the entry N#Cc1c(N)sc2c(F)ccc(-c3c(Cl)c4c5c(nc(OC[C@@]67CCCN6C[C@H](F)C7)nc5c3F)N(CC3(O)CC3)CCO4)c12 [Compound 868] : > 5.30

###

Biological target: K-Ras G12S (Homo sapiens, UniProt P01116, G12S)
Sequence (P01116 1-188 isoform P01116-2 G12S): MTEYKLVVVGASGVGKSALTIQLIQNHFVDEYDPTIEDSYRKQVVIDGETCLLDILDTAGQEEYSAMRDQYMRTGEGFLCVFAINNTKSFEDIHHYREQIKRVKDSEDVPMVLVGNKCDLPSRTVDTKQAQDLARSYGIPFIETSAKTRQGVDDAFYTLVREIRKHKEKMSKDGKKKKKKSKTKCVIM
Test: HTRF resonance energy transfer assay, K-Ras G12S / SOS1 interaction
Conditions: HTRF assay of Example 5; read-out: IC50 against K-Ras G12S
pIC50: −log10 of the molar value.
Measure: pIC50

Form: compound = N#Cc1c(N)sc2c(F)ccc(-c3c(Cl)c4c5c(nc(OC[C@@]67CCCN6C[C@H](F)C7)nc5c3F)N(C3CCN(C=O)C3)CCO4)c12 (some centres unmarked) ; pIC50 = > 7.00

###

Measured IC50 accompanies every entry in the list below.
Biological target: K-Ras WT (Homo sapiens)
Assay: HTRF resonance energy transfer assay, K-Ras WT / SOS1 interaction
Settings: HTRF assay of Example 5; read-out: IC50 against K-Ras WT
Excerpt: This assay can be also used to assess a selective inhibition or reduction of signaling output of a mutant Ras protein relative to a wildtype, or relative to a different mutant Ras protein. For example, the equilibrium interaction of wildtype Kras or K-Ras mutant (e.g., wildtype or a mutant thereof) with SOS1 (e.g., hSOS1) can be assessed as a proxy or an indication for a subject compound's ability to bind and inhibit Ras protein. […]

Record excerpt, results attached:
C[C@H]1CN(C23CC(C2)C3)c2nc(OC[C@@]34CCCN3C[C@H](F)C4)nc3c(F)c(-c4ccc(F)c5sc(N)c(C#N)c45)c(Cl)c(c23)O1 | < 100 nM
N#Cc1c(N)sc2c(F)ccc(-c3c(Cl)c4c5c(nc(OC[C@@]67CCCN6C[C@H](F)C7)nc5c3F)N(C3CCCN(C=O)CC3)CCO4)c12 (stereo partly drawn) | < 100 nM

Recorded result, CC(C)N1CCOc2c(Cl)c(-c3ccc(F)c4sc(N)c(C#N)c34)c(F)c3nc(OC[C@@]45CCCN4C[C@H](F)C5)nc1c23 , IC50: < 100 nM

###

compounds and their reported pIC50
Molecular target: K-Ras WT (Homo sapiens, UniProt P01116)
Sequence (P01116 1-188 isoform P01116-2): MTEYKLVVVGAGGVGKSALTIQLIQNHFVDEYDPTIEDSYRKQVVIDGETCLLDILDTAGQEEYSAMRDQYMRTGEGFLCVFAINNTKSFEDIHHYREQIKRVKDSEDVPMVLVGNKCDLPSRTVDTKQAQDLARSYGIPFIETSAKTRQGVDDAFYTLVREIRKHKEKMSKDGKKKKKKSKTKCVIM
Assay: HTRF resonance energy transfer assay, K-Ras WT / SOS1 interaction
Conditions: HTRF assay of Example 5; read-out: IC50 against K-Ras WT
pIC50: −log10 of the molar value.

These solved cases illustrate the format of a correct answer.
N#Cc1c(N)sc2c(F)ccc(-c3c(Cl)c4c5c(nc(OC[C@@]67CCCN6C[C@H](F)C7)nc5c3F)N(CC3CC3C#N)[C@@H](C3(O)CC3)CO4)c12 (single isomer, unassigned) [Compound 821] | > 7.00
CC1Oc2c(Cl)c(-c3ccc(F)c4sc(N)c(C#N)c34)c(F)c3nc(OC[C@@]45CCCN4C[C@H](F)C5)nc(c23)N(CC(F)F)C1CC#N (stereo partly shown) [Compound 968] | > 7.00
N#Cc1c(N)sc2c(F)ccc(-c3c(Cl)c4c5c(nc(OC[C@@]67CCCN6C[C@H](F)C7)nc5c3F)N(CC3(N)CCC3)CCCO4)c12 [Compound 1213] | > 7.00

Query compound follows.
Per the records, this compound ( N#Cc1c(N)sc2c(F)ccc(-c3c(Cl)c4c5c(nc(OC[C@@]67CCCN6C[C@H](F)C7)nc5c3F)N(CC(F)F)C(C3(F)CC3)CO4)c12 (stereo partly shown) [Compound 943] ) has pIC50 equal to > 7.00
